# assay.system: trypsin
# Sequence (P00760 24-246 limits assumed): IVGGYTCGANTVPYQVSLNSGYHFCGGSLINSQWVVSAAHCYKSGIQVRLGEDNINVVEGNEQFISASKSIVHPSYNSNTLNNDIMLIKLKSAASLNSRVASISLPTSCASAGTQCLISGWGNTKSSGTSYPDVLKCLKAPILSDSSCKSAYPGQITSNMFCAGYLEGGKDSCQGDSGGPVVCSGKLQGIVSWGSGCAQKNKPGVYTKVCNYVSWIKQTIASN
# assay.notes: Inhibition constants for trypsin, determined in analogy to uPA
pKi: −log10 of the molar value.
endpoint.label: pKi

[[record]]
molecule = "N=C(N)c1ccc(CNC(=O)[C@H](CO)NC(=O)[C@@H](CO)NS(=O)(=O)Cc2cccc(C(=O)O)c2)cc1 [R=3-COOH, X=CH, R1=CH2—OH]"
reported_value = 7.24


a = N=C(N)c1ccc(CNC(=O)[C@H](CO)NC(=O)[C@@H](CO)NS(=O)(=O)Cc2ccc(C(=O)O)cc2)cc1 [R=4-COOH, X=CH, R1=CH2—OH]
b = N#Cc1ccc(CS(=O)(=O)N[C@H](CO)C(=O)NCC(=O)NCc2ccc(C(=N)N)cc2)cc1 [R=4-CN, X=CH, R1=CH]
Request: Select the item with the higher value of pKi from the options a and b listed. Selection: enter the item's label.
Response: a
(a: 7.00, b: 6.47)

====

# assay.system: trypsin
# assay.notes: Inhibition constants for trypsin, determined in analogy to uPA
pKi: −log10 of the molar value.
endpoint.label: pKi

[[record]]
entry_smiles = "N=C(N)c1ccc(CNC(=O)CNC(=O)[C@@H](CO)NS(=O)(=O)Cc2ccc(C(=O)O)cc2)cc1"
reported_value = 6.32

[[record]]
entry_smiles = "N=C(N)c1ccc(CNC(=O)[C@H](COCc2ccccc2)NC(=O)[C@@H](CO)NS(=O)(=O)Cc2ccccc2)cc1"
reported_value = 8.17

[[record]]
entry_smiles = "N=C(N)c1ccc(CNC(=O)CNC(=O)[C@@H](CO)NS(=O)(=O)Cc2ccc(Cl)c(Cl)c2)cc1"
reported_value = 6.22

[[record]]
entry_smiles = "COC(=O)c1ccccc1CS(=O)(=O)N[C@H](CO)C(=O)NCC(=O)NCc1ccc(C(=N)N)cc1"
reported_value = 6.40

[[record]]
entry_smiles = "COC(=O)c1ccc(CS(=O)(=O)N[C@H](CO)C(=O)N[C@@H](CO)C(=O)NCc2ccc(C(=N)N)cc2)cc1"
reported_value = 7.70


I = N=C(N)c1ccc(CNC(=O)CNC(=O)[C@@H](CO)NS(=O)(=O)Cc2ccc(CC(=O)O)cc2)cc1
II = N=C(N)c1ccc(CNC(=O)CNC(=O)[C@@H](CO)NS(=O)(=O)Cc2ccccc2C(=O)O)cc1
Request: Between I and II , which one has the lower reported pKi value? Selection: enter the item's label.
Response: II

====

# assay.system: thrombin (Homo sapiens (Human), UniProt P00734)
# assay.notes: Inhibition constants for thrombin, determined in analogy to uPA
# Assay type: biochemical
Where a name gives a salt, the structure may show the parent alone.
endpoint.label: Ki (µM)

Some compounds with known Ki results, for comparison:
[[record]]
compound = "COC(=O)c1ccccc1CS(=O)(=O)N[C@H](CO)C(=O)NCC(=O)NCc1ccc(C(=N)N)cc1"
endpoint_label = "Ki"
reported_value = 4

[[record]]
compound = "N=C(N)c1ccc(CNC(=O)CNC(=O)[C@@H](CO)NS(=O)(=O)Cc2ccc(Cl)cc2)cc1"
endpoint_label = "Ki"
reported_value = 7.9


a = N=C(N)c1ccc(CNC(=O)CNC(=O)[C@@H](CO)NS(=O)(=O)Cc2ccc(CN)cc2)cc1 [R=4-(NH2—CH2), X=CH, R1=H, TFA]
b = CC(O)[C@H](NC(=O)[C@@H](CO)NS(=O)(=O)Cc1ccccc1)C(=O)NCc1ccc(C(=N)N)cc1 (stereo partly shown)
Request: Select the item with the higher value of Ki from the options a and b listed. Selection: enter the item's label.
Response: a
